Origin of the recorded values: paper PMC10455239

# TESTED SYSTEM: α-glucosidase (Saccharomyces cerevisiae)
# Construct: purchased Sigma-Aldrich G0660
# METHOD SUMMARY: biochemical
# CONDITION: IC50 α-glucosidase, equivalent in μM, converted from μg/mL
TEST READOUT: IC50

[[record]]
compound = "COc1c(O)cc2oc3cc(O)c(CC=C(C)C)c(O)c3c(=O)c2c1CC=C(C)C [Compound 9, α-mangostin]"
test_readout = "IC50"
result = "4.63 µM"


---

# TESTED SYSTEM: α-glucosidase (Saccharomyces cerevisiae, UniProt P53341)
# Construct: purchased Sigma-Aldrich G0660
# Sequence (P53341 whole entry): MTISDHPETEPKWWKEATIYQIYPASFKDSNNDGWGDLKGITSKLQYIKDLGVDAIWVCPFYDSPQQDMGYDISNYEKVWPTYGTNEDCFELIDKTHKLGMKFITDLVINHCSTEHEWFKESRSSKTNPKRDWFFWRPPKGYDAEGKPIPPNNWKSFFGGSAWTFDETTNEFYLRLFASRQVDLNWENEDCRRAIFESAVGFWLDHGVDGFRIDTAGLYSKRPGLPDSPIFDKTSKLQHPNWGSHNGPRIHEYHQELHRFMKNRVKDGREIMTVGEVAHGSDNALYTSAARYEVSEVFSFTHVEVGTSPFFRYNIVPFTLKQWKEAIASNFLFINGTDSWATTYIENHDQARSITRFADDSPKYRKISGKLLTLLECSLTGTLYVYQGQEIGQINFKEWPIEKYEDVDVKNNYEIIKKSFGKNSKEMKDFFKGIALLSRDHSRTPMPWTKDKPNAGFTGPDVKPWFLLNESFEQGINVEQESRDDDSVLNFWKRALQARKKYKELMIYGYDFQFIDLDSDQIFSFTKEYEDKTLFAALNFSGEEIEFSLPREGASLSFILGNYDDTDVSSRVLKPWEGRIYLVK
# METHOD SUMMARY: biochemical
# CONDITION: Table S1, α-glucosidase; read-out: IC50 (Table S1) (converted)
TEST READOUT: IC50

[[record]]
compound = "C=C1CC[C@@H]2[C@H]([C@H]3[C@H]1CC[C@]3(C)O)C2(C)C [Compound 1, spathulenol]"
result = "> 1.16 mM"

[[record]]
compound = "CC(C)=CCC/C(C)=C/Cc1c(O)c(CC=C(C)C)c(O)c2c(=O)c3cc(O)ccc3oc12 [Compound 8, cochinchinone A]"
result = "0.0202 mM"

[[record]]
compound = "CC1(C)[C@H]2[C@H]3[C@@H](CC[C@]3(C)O)[C@](C)(O)CC[C@H]21 [Compound 2, 1αH,5βH-aromandendrane-4β,10α-diol]"
result = "> 1.07 mM"

[[record]]
compound = "C=C1CC[C@@H](O)[C@]2(C)CC[C@@H](C(C)C)[C@H](O)[C@@H]12 [Compound 3, 1β,6α-dihydroxy-4(15)-eudesmene]"
result = "> 1.07 mM"

[[record]]
compound = "CC1(C)[C@H]2[C@H]3[C@H](CC[C@@]3(C)O)[C@@](C)(O)CC[C@H]21 [Compound 4, 1βH,5βH-aromandendrane-4α,10β-diol]"
result = "> 1.07 mM"

